Reference source: patent US20210040155A1

Entries and their measured Ratios of EC50 values MC 3/4 (MC3R against MC4R) follow.
biological target: melanocortin-3 receptor (human, UniProt P41968 1-323); experiment: cell-based or functional assay
Sequence (P41968 whole entry): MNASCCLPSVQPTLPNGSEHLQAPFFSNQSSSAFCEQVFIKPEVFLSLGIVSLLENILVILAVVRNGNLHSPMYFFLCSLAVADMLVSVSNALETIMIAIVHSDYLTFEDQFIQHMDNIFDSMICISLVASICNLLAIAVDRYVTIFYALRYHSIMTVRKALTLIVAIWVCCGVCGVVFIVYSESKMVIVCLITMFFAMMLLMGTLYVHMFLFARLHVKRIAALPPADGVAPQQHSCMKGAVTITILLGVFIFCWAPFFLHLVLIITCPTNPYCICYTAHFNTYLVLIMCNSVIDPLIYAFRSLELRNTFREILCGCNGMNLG
Bridge positions count the residues as written; N and C are the ends. Square brackets hold non-standard residues; d marks the D form. hCys = N[C@@H](CCS)C(=O)O
Answer in ratio, number only, no unit symbol.

Ac-R[hCys][dA][dF]RWC-NH2 (disulfide 2-7; SMILES CC(=O)N[C@@H](CCCNC(=N)N)C(=O)N[C@H]1CCSSC[C@@H](C(N)=O)NC(=O)[C@H](Cc2c[nH]c3ccccc23)NC(=O)[C@H](CCCNC(=N)N)NC(=O)[C@@H](Cc2ccccc2)NC(=O)[C@@H](C)NC1=O) [Ac-Arg-cyclo[hCys-D-Ala-D-Phe-Arg-Trp-Cys]-NH2] : 420

Shift focus to the following entry.
// Ac-RC[dA]Q[dF]RWC-NH2 (disulfide 2-8; SMILES CC(=O)N[C@@H](CCCNC(=N)N)C(=O)N[C@H]1CSSC[C@@H](C(N)=O)NC(=O)[C@H](Cc2c[nH]c3ccccc23)NC(=O)[C@H](CCCNC(=N)N)NC(=O)[C@@H](Cc2ccccc2)NC(=O)[C@H](CCC(N)=O)NC(=O)[C@@H](C)NC1=O) [Ac-Arg-cyclo[Cys-D-Ala-Gln-D-Phe-Arg-Trp-Cys]-NH2] : Ratios of EC50 values MC 3/4 (MC3R against MC4R) value = 5
